# tested_target: human recombinant sEH (Homo sapiens)
# Construct: purchased Cayman Chemical 10011671
# experiment: Fluorescence-based sEH activity assay (PHOME substrate), human enzyme
# Format: biochemical
quantity_name: Human sEH % Inhibition (%)

[[record]]
molecule = "O=C(NC1CCCCC1)NS(=O)(=O)c1ccc(OC(F)(F)F)cc1"
tested_target = "human recombinant sEH (Homo sapiens)"
recorded_value = 32.26

[[record]]
molecule = "CC12CC3CC(C)(C1)CC(NC(=O)NS(=O)(=O)c1ccc(OC(F)(F)F)cc1)(C3)C2 [Compound 15a]"
tested_target = "human recombinant sEH (Homo sapiens)"
recorded_value = 92.06

[[record]]
molecule = "O=C(NS(=O)(=O)c1ccc(OC(F)(F)F)cc1)N1CCC(C(F)(F)F)CC1"
tested_target = "human recombinant sEH (Homo sapiens)"
recorded_value = 2.75

[[record]]
molecule = "Cc1ccc(S(=O)(=O)NC(=O)NC23CC4CC(CC(C4)C2)C3)cc1"
tested_target = "human recombinant sEH (Homo sapiens)"
recorded_value = 91.78


====

# tested_target: mouse recombinant sEH (Mus musculus)
# Sequence (P34914 1-554): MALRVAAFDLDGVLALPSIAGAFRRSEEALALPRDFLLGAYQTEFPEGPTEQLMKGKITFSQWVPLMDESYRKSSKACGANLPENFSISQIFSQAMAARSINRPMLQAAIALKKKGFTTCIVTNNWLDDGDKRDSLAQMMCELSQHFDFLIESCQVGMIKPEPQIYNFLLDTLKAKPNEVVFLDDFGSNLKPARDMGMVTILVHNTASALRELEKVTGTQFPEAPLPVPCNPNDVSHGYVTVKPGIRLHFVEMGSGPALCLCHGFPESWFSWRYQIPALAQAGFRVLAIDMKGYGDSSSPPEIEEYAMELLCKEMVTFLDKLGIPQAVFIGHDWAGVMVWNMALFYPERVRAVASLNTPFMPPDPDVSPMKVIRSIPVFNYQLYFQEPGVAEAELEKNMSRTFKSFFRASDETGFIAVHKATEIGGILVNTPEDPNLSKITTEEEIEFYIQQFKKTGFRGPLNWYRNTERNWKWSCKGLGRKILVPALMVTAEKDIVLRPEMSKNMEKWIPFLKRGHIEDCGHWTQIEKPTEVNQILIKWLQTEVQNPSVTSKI
# experiment: Fluorescence-based sEH activity assay (PHOME substrate), mouse enzyme
# condition_parameters: dose-dependent assay; read-out: Mouse sEH Inhibition IC50
pIC50: −log10 of the molar value.
Let's look at some molecules and their measured pIC50.
quantity_name: pIC50

[[record]]
given_smiles = "O=C(NC12CC3CC(CC(C3)C1)C2)NS(=O)(=O)c1ccc(OC(F)(F)F)cc1"
recorded_value = 6.54

[[record]]
given_smiles = "O=C(NC12CC3CC(CC(C3)C1)C2)NS(=O)(=O)c1ccc(Cl)cc1"
recorded_value = "< 6.00"

[[record]]
given_smiles = "O=C(NC12CC3CC(CC(C3)C1)C2)NS(=O)(=O)c1ccc(F)cc1"
recorded_value = "< 6.00"

[[record]]
given_smiles = "O=C(NC12CC3CC(CC(C3)C1)C2)NS(=O)(=O)c1ccccc1"
recorded_value = "< 6.00"

[[record]]
given_smiles = "O=S(=O)(NC(=S)NC12CC3CC(CC(C3)C1)C2)c1ccc(OC(F)(F)F)cc1"
recorded_value = 6.96

[[record]]
given_smiles = "O=C(NC12CC3CC(CC(C3)C1)C2)NS(=O)(=O)c1ccc2ccccc2c1"
recorded_value = 6.72

[[record]]
given_smiles = "COc1ccc(S(=O)(=O)NC(=O)NC23CC4CC(CC(C4)C2)C3)cc1"
recorded_value = "< 6.00"

[[record]]
given_smiles = "O=S(=O)(NC(=S)NC12CC3CC(CC(C3)C1)C2)c1ccccc1"
recorded_value = "< 6.00"


====

# tested_target: mouse recombinant sEH (Mus musculus, UniProt P34914)
# experiment: Fluorescence-based sEH activity assay (PHOME substrate), mouse enzyme
# condition_parameters: dose-dependent assay; read-out: Mouse sEH Inhibition IC50
pIC50: −log10 of the molar value.
quantity_name: pIC50

[[record]]
compound = "Cc1ccc(S(=O)(=O)NC(=O)NC23CC4CC(CC(C4)C2)C3)cc1"
modifier_sign = "="
recorded_value = 6.07

[[record]]
compound = "CC12CC3CC(C)(C1)CC(NC(=O)NS(=O)(=O)c1ccc(OC(F)(F)F)cc1)(C3)C2 [Compound 15a]"
modifier_sign = "="
recorded_value = 7.66

[[record]]
compound = "CC12CC3CC(C)(C1)CC(NC(=O)NS(=O)(=O)c1ccc4ccccc4c1)(C3)C2 [Compound 15b]"
modifier_sign = "<"
recorded_value = 6.00

[[record]]
compound = "O=C(NC1CCN(C(=O)NC23CC4CC(CC(C4)C2)C3)CC1)NS(=O)(=O)c1ccc(OC(F)(F)F)cc1"
modifier_sign = "="
recorded_value = 6.15


====

# experiment: Plasma protein binding (equilibrium dialysis), mouse
# Format: in vitro ADME
# condition_parameters: plasma (non-diluted), pH 7.4, read-out: Plasma Protein Binding Mouse % of Bound Comp (converted)
Let's look at some molecules and their measured fraction unbound at 5 h, 1 μM.
quantity_name: fraction unbound at 5 h, 1 μM

[[record]]
given_smiles = "O=C(NC12CC3CC(CC(C3)C1)C2)NS(=O)(=O)c1ccc2ccccc2c1"
recorded_value = 0.02

[[record]]
given_smiles = "O=C(NC12CC3CC(CC(C3)C1)C2)NS(=O)(=O)c1ccc(OC(F)(F)F)cc1"
recorded_value = 0.02


====

# experiment: Caco-2 permeability
# Format: in vitro ADME
# condition_parameters: human, Caco-2, pH 7.4; B to A; read-out: Caco-2 Permeability Basal to Apical (Papp)
quantity_name: Papp B→A at 90 min, 10 µM (×10⁻⁶ cm/s)

[[record]]
given_smiles = "O=C(NC12CC3CC(CC(C3)C1)C2)NS(=O)(=O)c1ccc(OC(F)(F)F)cc1"
recorded_value = 12.6


====

# experiment: In vivo pharmacokinetic experiment
# Set-up: species or system C57BL/6J mice
# condition_parameters: male, C57BL/6J, mouse, serum, other: oral and intraperitoneal; mice, oral and intraperitoneal administration, 10 mg/kg; read-out: plasma half-life
quantity_name: half-life

[[record]]
molecule = "O=C(NC12CC3CC(CC(C3)C1)C2)NS(=O)(=O)c1ccc(OC(F)(F)F)cc1"
recorded_value = "< 2 h"

[[record]]
molecule = "CC12CC3CC(C)(C1)CC(NC(=O)NS(=O)(=O)c1ccc(OC(F)(F)F)cc1)(C3)C2 [Compound 15a]"
recorded_value = "< 2 h"


====

# tested_target: human recombinant sEH (Homo sapiens)
# Construct: purchased Cayman Chemical 10011671
# Sequence (P34913 1-555): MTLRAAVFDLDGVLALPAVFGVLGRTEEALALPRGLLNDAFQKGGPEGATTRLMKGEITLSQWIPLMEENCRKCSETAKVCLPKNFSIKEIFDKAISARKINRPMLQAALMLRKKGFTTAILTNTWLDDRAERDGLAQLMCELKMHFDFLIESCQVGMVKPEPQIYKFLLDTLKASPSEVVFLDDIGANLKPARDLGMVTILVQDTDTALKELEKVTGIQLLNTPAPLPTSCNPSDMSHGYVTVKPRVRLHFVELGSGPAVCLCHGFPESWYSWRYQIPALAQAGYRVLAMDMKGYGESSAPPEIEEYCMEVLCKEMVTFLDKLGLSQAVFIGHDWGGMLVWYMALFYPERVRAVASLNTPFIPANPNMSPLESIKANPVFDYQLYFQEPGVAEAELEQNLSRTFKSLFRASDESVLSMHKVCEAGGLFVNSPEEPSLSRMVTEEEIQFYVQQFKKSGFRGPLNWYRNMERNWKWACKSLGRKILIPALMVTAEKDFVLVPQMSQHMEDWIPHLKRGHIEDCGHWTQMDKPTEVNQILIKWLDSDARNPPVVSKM
# experiment: Fluorescence-based sEH activity assay (PHOME substrate), human enzyme
# Type: biochemical
Let's look at some molecules and their measured Human sEH % Inhibition.
quantity_name: Human sEH % Inhibition (%)

[[record]]
molecule = "O=C(NC12CC3CC(CC(C3)C1)C2)NS(=O)(=O)c1ccc(F)cc1"
unit_tag = "%"
recorded_value = 85.26

[[record]]
molecule = "CC(C)(C)c1ccc(S(=O)(=O)NC(=O)NC23CC4CC(CC(O)(C4)C2)C3)cc1 [Compound 10c]"
unit_tag = "%"
recorded_value = 3.08

[[record]]
molecule = "O=C(NC12CC3CC(CC(O)(C3)C1)C2)NS(=O)(=O)c1ccc(C(F)(F)F)cc1 [Compound 10b]"
unit_tag = "%"
recorded_value = 21.26

[[record]]
molecule = "O=S(=O)(NC(=S)NC12CC3CC(CC(C3)C1)C2)c1ccc(OC(F)(F)F)cc1"
unit_tag = "%"
recorded_value = 96.24

[[record]]
molecule = "CC(C)(C)c1ccc(S(=O)(=O)NC(=O)NC23CC4CC(CC(C4)C2)C3)cc1"
unit_tag = "%"
recorded_value = 32.7

[[record]]
molecule = "O=C(NC1CCN(C(=O)NC23CC4CC(CC(C4)C2)C3)CC1)NS(=O)(=O)c1ccc(OC(F)(F)F)cc1"
unit_tag = "%"
recorded_value = 60.80

[[record]]
molecule = "CC12CC3CC(C)(C1)CC(NC(=O)NS(=O)(=O)c1ccc4ccccc4c1)(C3)C2 [Compound 15b]"
unit_tag = "%"
recorded_value = 47.05

[[record]]
molecule = "CNN/C(=N\\S(=O)(=O)c1ccc(OC(F)(F)F)cc1)NC12CC3CC(CC(C3)C1)C2"
unit_tag = "%"
recorded_value = 9.83

[[record]]
molecule = "CC(C)(C)OC(=O)N1CCC(NC(=O)NS(=O)(=O)c2ccc(OC(F)(F)F)cc2)CC1"
unit_tag = "%"
recorded_value = 23.03

[[record]]
molecule = "O=C(NC12CC(C1)C2)NS(=O)(=O)c1ccc(OC(F)(F)F)cc1 [Compound 11a]"
unit_tag = "%"
recorded_value = 4.28

[[record]]
molecule = "N/C(=N\\S(=O)(=O)c1ccc(OC(F)(F)F)cc1)NC12CC3CC(CC(C3)C1)C2"
unit_tag = "%"
recorded_value = 40.19

[[record]]
molecule = "N#CC12CC(NC(=O)NS(=O)(=O)c3ccc(OC(F)(F)F)cc3)(C1)C2 [Compound 11b]"
unit_tag = "%"
recorded_value = 7.47

[[record]]
molecule = "COc1ccc(S(=O)(=O)NC(=O)NC23CC4CC(CC(C4)C2)C3)cc1"
unit_tag = "%"
recorded_value = 95.39

[[record]]
molecule = "CN/C(=N\\S(=O)(=O)c1ccc(OC(F)(F)F)cc1)NC12CC3CC(CC(C3)C1)C2"
unit_tag = "%"
recorded_value = 13.06

[[record]]
molecule = "CS/C(=N\\S(=O)(=O)c1ccc(OC(F)(F)F)cc1)NC12CC3CC(CC(C3)C1)C2"
unit_tag = "%"
recorded_value = 32.83

[[record]]
molecule = "O=C(NC12CC3CC(CC(C3)C1)C2)NS(=O)(=O)c1cccc(OC(F)(F)F)c1"
unit_tag = "%"
recorded_value = 1.65

